The entries below come with measured inhibition values attached.
# assay.remarks: M. tuberculosis H37Rv growth inhibitors, H37Rv strain (AID 1626);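 note: bacteria incubated seven days before Alamar blue readout; 0% = bacteria only wells and 100% = bacteria with antibiotic wells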
# settings: active compounds read high, concentration not given here
Among all 220,000 compounds or so, about 2,000 (0.91%) were called active. Another 2% or so got no clear call; they are omitted. Only a sample is shown. Potency and affinity values are given separately.

| compound | inhibition [%] |
| --- | --- |
| COC(=O)c1ccc(COc2ccc3c4c(c(=O)oc3c2)CCC4)o1 | -7.47 |
| Cc1ccc(NP(=O)(Nc2ccc(C)cc2)Oc2ccccc2)cc1 | 5.95 |
| O=C1CC(=C(c2ccccc2)c2ccccc2)C(=O)N1CCN1CCN(c2cccc(Cl)c2)CC1 | 5.45 |
| COc1ccc2nc(NC(=O)c3cc(S(=O)(=O)N4CCOCC4)ccc3C)sc2c1 | 14.6 |
| COc1cc(CNCc2ccccn2)ccc1OCc1cccc(Cl)c1 | 28.4 |
| CC1CCCN(c2nc3c(c(=O)[nH]c(=O)n3C)n2CCSc2ncccn2)C1 (configuration not stated) | 2.85 |
| Cc1cc(NCCCN2CCOCC2)n2c(nc3ccccc32)c1C#N | -4.69 |
| O=C(CNc1ccccc1)NN=C1CCCC1 | -7.1 |
| Oc1ccc(Br)cc1C=Nc1ccc(Cl)cc1 | 3.2 |
| Fc1ccc(-c2nnn3c2nc(NCc2ccccc2)c2ccccc23)cc1 | -3.18 |
| Nc1ccc(C(=O)OCC(=O)N2c3ccccc3Sc3ccccc32)cc1[N+](=O)[O-] | -1.19 |
| COc1cc(OC)c2c(-c3ccccc3)cc(=O)oc2c1C(CC(=O)N1CCOCC1)c1ccc(N(C)C)cc1 (configuration not stated) | -7.25 |
| CC1CCCC(NC(=O)COC(=O)COc2ccccc2Cl)C1C (configuration not stated) | -6.56 |
| CC(=O)Nc1ccc(S(=O)(=O)N2CCN(CCN3CCOCC3)CC2)cc1Cl | -2.42 |
| O=C(CCN1CCN(Cc2ccccc2)CC1)Nc1cccc(Cl)c1 | -5.85 |
| O=C(Oc1ccc([N+](=O)[O-])cc1)c1cncc(Br)c1 | 10.3 |
| CCCCOc1ccc(OC(=O)c2cccnc2)cc1 | 6.86 |
| O=C1CC(=O)CC(c2ccccc2Cl)C1 | -8.51 |
| c1ccc(-c2cnc(-c3ccccc3)nc2)cc1 | -5.94 |
| CC(CCc1ccccc1)NC(=O)CSc1nc(N)cc(N)n1 (configuration not stated) | -5.33 |
| O=C(Oc1cccc(Br)c1)c1cccnc1 | 13.2 |
| COc1ccc(NC(=O)C2C3CCC(C3)C2C(=O)O)cc1OC (configuration not stated) | 6.44 |
| Cn1c(Cc2ccccc2)nnc1SCC(=O)N1CCCCC1 | -3.96 |
| CCCCN(C(=O)c1cc2ccccc2o1)c1c(N)n(CC(C)C)c(=O)[nH]c1=O | 9.87 |
| CCOC(=O)CN1CC23C=CC(O2)C(C(=O)Nc2ccc(F)c(C)c2)C3C1=O (configuration not stated) | -11.9 |
| NC(=O)NC(=O)COC(=O)c1sc2ccccc2c1Cl | -8.02 |
| CSc1ccccc1NC(=O)c1ccc(C)o1 | -1.2 |
| CN(C)S(=O)(=O)c1ccc(NC(=O)CSc2nnnn2C)cc1 | 2.23 |
| CCCOc1ccc(/C=N/NC(=O)C(C)Sc2ccccn2)cc1OCC (configuration not stated) | 4.45 |
| Cc1nn(C)c2c(=O)c(=O)c2n(C)[nH]1 | -3.16 |
| Cn1c(SCc2nc3ccccc3[nH]2)nnc1-c1cccnc1 | -8.31 |
| O=C1C2=C(CCCC2)C(=O)N1CNc1ccccc1 | -13.7 |
| O=c1[nH]c2ccccc2c2nc3ccccn3c12 | -1.5 |
| O=C(NCCCN1CCOCC1)/C(=C/c1ccc(F)cc1)NC(=O)c1ccccc1 | -5.09 |
| O=C(COC(=O)CC1CC2CCC1C2)Nc1c(F)cccc1F (configuration not stated) | -6.22 |
| Oc1ccc(Cl)cc1C=Nc1ccc(Br)cc1 | -2.18 |
| C=CCNC(=O)/C(C#N)=C/c1c(C)nn(-c2ccc(Cl)cc2)c1Cl | 4.6 |
| COc1ccc2nc(C)cc(Sc3nc4ccccc4s3)c2c1 | 0.98 |
| COC(=O)c1ccc(NC(=O)CN2C(=O)C3C4C=CC(C4)C3C2=O)cc1 (configuration not stated) | 1.35 |
| O=C(O)c1cc(-n2cccc2)ccc1N1CCOCC1 | -4.7 |
| O=C(/C=C/c1ccco1)N(Cc1cccc(Br)c1)C1CCS(=O)(=O)C1 (configuration not stated) | -13.6 |
| COc1cc(CNCc2ccccn2)ccc1OCc1ccccc1Cl | 61 |
| COc1cc(C(CCN2CCCC(C)C2)c2c(OC)cc(OC)c3c(-c4ccccc4)cc(=O)oc23)cc(OC)c1OC (configuration not stated) | 71 |
| CCCc1cc(=O)oc2cc(C)cc(OCC(=O)O)c12 | -0.53 |
| N#CCCN/N=C(\Cc1nc2ccccc2[nH]1)c1ccccc1 | -0.45 |
| COc1cccc(CN2CCCCC2C(=O)O)c1 (configuration not stated) | -3.4 |
| CC(Sc1ccccc1)C(=O)Nc1ccccc1C(=O)N1CCOCC1 (configuration not stated) | -11.3 |
